The following compounds are listed with their measured selectivity ratio values.
- experimental.details: Differential index, LC50 for rat NRK 52E cells to LC50 for rat N-ras transformed NRK N/4.2 cells
- Type: ADME, cell-based
- particulars: NRK 52E cells versus N-ras transformed NRK N/4.2 cells

CCCC(=O)NC1=CC(=O)c2ccc(-c3nc(C(=O)OC)cc4c3[nH]c3ccccc34)nc2C1=O = 1.1
CC(=O)NC1=CC(=O)c2ccc(-c3[nH]c(C(=O)O)cc4c5ccccc5nc3-4)nc2C1=O = 1.5
CCCC(=O)NC1=CC(=O)c2ccc(-c3nc(C(=O)OCCC(C)C)cc4c3[nH]c3ccccc34)nc2C1=O = 1.5
COC(=O)c1cc2c([nH]c3ccccc32)c(-c2ccc3c(n2)C(=O)C(NC(=O)C(C)C)=CC3=O)n1 = 1.1
CC(=O)NC1=CC(=O)c2ccc(-c3nc(C(=O)OCCN(C)C)cc4c3[nH]c3ccccc34)nc2C1=O = 1.3

Item `CC(C)CCOC(=O)c1cc2c([nH]c3ccccc32)c(-c2ccc3c(n2)C(=O)C(NC(=O)CCl)=CC3=O)n1` has what recorded selectivity ratio? 1.1

// query: `CC(=O)NC1=CC(=O)c2ccc(-c3nc(C(=O)OCCC(C)C)cc4c3[nH]c3ccccc34)nc2C1=O` 1.1

// query: `COC(=O)c1cc2c([nH]c3ccccc32)c(-c2ccc3c(n2)C(=O)C(NC(C)=O)=CC3=O)n1` 1
